- System: Rattus norvegicus
- EXPERIMENT: Hypolipidemic activity was measured as reduction in rat serum triglyceride after oral administration in male Wistar rats at 100 mg / (kg day)
- Type: functional
Each entry below carries its reported Reduction.
Answer format: value, then unit.

Solved entries (count: 5):
[
  {
    "MOLECULE": "Cc1cc(C(c2cccc([N+](=O)[O-])c2)N2CCN(C)CC2)sn1 (configuration not stated)",
    "TARGET ENTITY": "Rattus norvegicus",
    "EXPERIMENTAL VALUE": "17%"
  },
  {
    "MOLECULE": "Cc1cc(C(OCCN(C)C)c2ccc(C(C)C)cc2)sn1 (configuration not stated)",
    "TARGET ENTITY": "Rattus norvegicus",
    "EXPERIMENTAL VALUE": "41%"
  },
  {
    "MOLECULE": "CCc1ccccc1C(c1cc(C)ns1)N1CCN(C)CC1 (configuration not stated)",
    "TARGET ENTITY": "Rattus norvegicus",
    "EXPERIMENTAL VALUE": "88%"
  },
  {
    "MOLECULE": "Cc1cc(C(c2ccc(C(C)C)cc2)N2CCN(C)CC2)sn1 (configuration not stated)",
    "TARGET ENTITY": "Rattus norvegicus",
    "EXPERIMENTAL VALUE": "85%"
  },
  {
    "MOLECULE": "Cc1cc(C(OCCN2CCCC2)c2ccc(C(C)C)cc2)sn1 (configuration not stated)",
    "TARGET ENTITY": "Rattus norvegicus",
    "EXPERIMENTAL VALUE": "2%"
  }
]

Lookup: Give recorded Reduction with Rattus norvegicus for the following molecule: CC(C)c1ccc(C(c2ccns2)N2CCN(C)CC2)cc1 (configuration not stated)
Found: 81%

Lookup: Checklist item: Reduction tested on Rattus norvegicus, entry Cc1nc(C)c(C(c2ccccc2Cl)N2CCN(C)CC2)s1 (configuration not stated) , value?
Found: 79%

Lookup: Query the reported Reduction for Rattus norvegicus; item: Cc1cc(C(c2ccc(C(C)C)cc2)N2CCN(CCO)CC2)sn1 (configuration not stated)
Found: 73%

Lookup: Query Reduction on Rattus norvegicus for Cc1cc(C(c2cccc(C(F)(F)F)c2)N2CCN(C)CC2)sn1 (configuration not stated)
Found: 30%

Lookup: Hello, I am looking for reported Reduction with Rattus norvegicus for Cc1noc(C)c1C(OC1CCNCC1)c1ccc(C(C)C)cc1 (configuration not stated) . Could you help?
Found: 23%

Lookup: Write down the reported Reduction of Cc1cnsc1C(c1ccccc1Cl)N1CCN(C)CC1 (configuration not stated) , test system: Rattus norvegicus.
Found: 90%

Lookup: Any idea what Reduction came out for Cc1noc(C)c1C(c1ccccc1Cl)N1CCN(C)CC1 (configuration not stated) on Rattus norvegicus?
Found: 41%

---

- System: Rattus norvegicus
- EXPERIMENT: Hypolipidemic activity was measured as reduction in rat serum cholesterol after oral administration in male Wistar rats at 100 mg/(kg day)
- Assay type: functional
Reported Reduction values for the following molecules.
Numbers only; they are read as %.

[
  {
    "MOLECULE": "Cc1cnsc1C(c1ccc(C(C)C)cc1)N1CCNCC1 (configuration not stated)",
    "TARGET ENTITY": "Rattus norvegicus",
    "MEASURE UNIT": "%",
    "Reduction": 86
  },
  {
    "MOLECULE": "Cc1cc(C(c2ccccc2Cl)N2CCN(C)CC2)sn1 (configuration not stated)",
    "TARGET ENTITY": "Rattus norvegicus",
    "MEASURE UNIT": "%",
    "Reduction": 61
  },
  {
    "MOLECULE": "CC(C)c1ccccc1C(c1ccns1)N1CCN(C)CC1 (configuration not stated)",
    "TARGET ENTITY": "Rattus norvegicus",
    "MEASURE UNIT": "%",
    "Reduction": 77
  },
  {
    "MOLECULE": "Cc1noc(C)c1C(c1ccccc1Cl)N1CCNCC1 (configuration not stated)",
    "TARGET ENTITY": "Rattus norvegicus",
    "MEASURE UNIT": "%",
    "Reduction": 87
  },
  {
    "MOLECULE": "COc1ccccc1C(c1ccns1)N1CCN(C)CC1 (configuration not stated)",
    "TARGET ENTITY": "Rattus norvegicus",
    "MEASURE UNIT": "%",
    "Reduction": 38
  }
]

Lookup: Which value of Reduction has been reported for Cc1cc(C(c2ccc(OC(C)C)cc2)N2CCN(C)CC2)sn1 (configuration not stated) in the records?
Found: 33

Lookup: Look up Reduction for this molecule: CCC(C)c1ccc(C(c2cc(C)ns2)N2CCN(C)CC2)cc1 (configuration not stated)
Found: 72

Lookup: Can you look up the measured Reduction of Cc1cc(C(c2ccc(C(C)C)cc2)N2CCN(CCO)CC2)sn1 (configuration not stated) for me?
Found: 73

Lookup: # input molecule: Cc1cc(C(c2cccc(Cl)c2)N2CCN(C)CC2)sn1 (configuration not stated) ; wanted: its Reduction
Found: 33

Provenance of the data: ChEMBL document CHEMBL1122607
